Test system: corn (Zea mays)
Assay: Test A preemergence soil spray, visual injury rating 0-100
Format: in vivo
Conditions: 62 g ai/ha, 10 days, 0 = no effect, 100 = complete control
From the text: […]
Measured Corn plant response rating (0-100) of individual entries

Molecule | Corn plant response rating (0-100)
CC1(C(=O)NC2CC=C(C(=O)OCC(F)F)C2)CN(c2cc(Cl)cc(Cl)c2)C(=O)O1 (stereo not shown) [Compound 154] | 30
CC1(C(=O)NC2C=CC(C(=O)O)C2)CN(c2cc(F)cc(F)c2)C(=O)O1 (stereo not shown) [Compound 138] | 90
COC(=O)C1CC(NC(=O)C2(C)CN(c3cc(F)cc(F)c3)C(=O)O2)C1 (stereo not shown) [Compound 117] | 0
CC1(C(=O)NC2CC=C(C(=O)O)C2)CN(c2cc(F)cc(Cl)c2)C(=O)O1 (stereo not shown) [Compound 159] | 50
CC(C)COC(=O)C1=CCC(NC(=O)C2(C)CN(c3cc(F)cc(F)c3)C(=O)O2)C1 (stereo not shown) [Compound 97] | 0
C=CC1(C(=O)NC2CC(C(=O)OC)C2)CN(c2cc(F)cc(F)c2)C(=O)O1 (stereo not shown) [Compound 173] | 90
Cc1cc(C)cc(N2CC(C)(C(=O)NC3C=CC(C(=O)O)C3)OC2=O)c1 (stereo not shown) [Compound 126] | 40
CC(C)OC(=O)C1=CCC(NC(=O)C2(C)CN(c3cc(F)cc(F)c3)C(=O)O2)C1 (stereo not shown) [Compound 99] | 0
CC(C)COC(=O)C1=CCC(NC(=O)C2(C)CN(c3cc(F)cc(Cl)c3)C(=O)O2)C1 (stereo not shown) [Compound 143] | 0
CC1(C(=O)NC2CC(C(=O)OCC(F)(F)F)C2)CN(c2cc(F)cc(F)c2)C(=O)O1 (stereo not shown) [Compound 121] | 90
COC(=O)C1C=CC(NC(=O)C2(C)CN(c3cc(F)cc(F)c3)C(=O)O2)C1 (stereo not shown) [Compound 92] | 0
COC(=O)C1C=CC(NC(=O)C2(C)CN(c3cc(F)cc(F)c3)C(=O)O2)C1 (stereo not shown) [Compound 89] | 100
COC(=O)COC(=O)C1=CCC(NC(=O)C2(C)CN(c3cc(F)cc(F)c3)C(=O)O2)C1 (stereo not shown) [Compound 107] | 0
COC(=O)C1C=CC(NC(=O)C2(C)CN(c3cc(Cl)c(F)c(Cl)c3)C(=O)O2)C1 (stereo not shown) [Compound 150] | 70
CC1(C(=O)NC2CC=C(C(=O)OCC(F)(F)F)C2)CN(c2cc(Cl)cc(Cl)c2)C(=O)O1 (stereo not shown) [Compound 96] | 40
CSCCOC(=O)C1=CCC(NC(=O)C2(C)CN(c3cc(F)cc(Cl)c3)C(=O)O2)C1 (stereo not shown) [Compound 135] | 70

###

Tested on: ragweed (common ragweed, Ambrosia artemisiifolia)
Assay: Test A postemergence application, visual injury rating 0-100
Type: in vivo
Details: Postemergence, 125 g ai/ha, 10 days; 0 is no effect, 100 is complete control
Rule: Ragweed plant response rating (0 to 100 scale) of 60 or more gives criterion met; anything lower gives criterion not met.

Compound | Assigned label
CC1(C(=O)NC2C=CC(C(=O)OC3CCCC3)C2)CN(c2cc(Cl)cc(Cl)c2)C(=O)O1 (stereo not shown) | criterion met
COC(=O)C1C=CC(NC(=O)C2(C)CN(c3cc(F)cc(Cl)c3)C(=O)O2)C1 (stereo not shown) | criterion met
CC(C)COC(=O)C1C=CC(NC(=O)C2(C)CN(c3cc(F)cc(F)c3)C(=O)O2)C1 (stereo not shown) | criterion met
CONC(=O)C1CC(NC(=O)C2(C)CN(c3cc(F)cc(F)c3)C(=O)O2)CO1 (stereo not shown) | criterion not met
CC1(C(=O)NC2CCC(C(=O)O)C2)CN(c2cc(F)cc(Cl)c2)C(=O)O1 (stereo not shown) | criterion not met
COC(=O)C1=CCC(NC(=O)C2(C)CN(c3cc(F)cc(F)c3)C(=O)O2)C1 (stereo not shown) | criterion met
CCOC(=O)C1C=CC(NC(=O)C2(C)CN(c3cc(Cl)cc(Cl)c3)C(=O)O2)C1 (stereo not shown) | criterion met
CCOC(=O)C1CC(NC(=O)C2(C)CN(c3cc(F)cc(F)c3)C(=O)O2)CO1 (stereo not shown) | criterion not met
CCOC(=O)C1CCC(NC(=O)C2(C)CN(c3cc(F)cc(F)c3)C(=O)O2)C1 (stereo not shown) | criterion not met
CSCCOC(=O)C1=CCC(NC(=O)C2(C)CN(c3cc(F)cc(F)c3)C(=O)O2)C1 (stereo not shown) | criterion not met
CC1(C(=O)NC2CC=C(C(=O)O)C2)CN(c2cc(Cl)cc(Cl)c2)C(=O)O1 (stereo not shown) | criterion met
CC(C)OC(=O)C1=CCC(NC(=O)C2(C)CN(c3cc(Cl)cc(Cl)c3)C(=O)O2)C1 (stereo not shown) | criterion not met
CC1(C(=O)NC2CCC(C(=O)NS(C)(=O)=O)C2)CN(c2cc(F)cc(F)c2)C(=O)O1 (stereo not shown) | criterion not met
